Attribution: patent US20250041437A1

Target: T1, recombinant human MUC1-SEA (MUC1 antigen, Acrobiosystems, Cat: MU1-H52H9) (human, UniProt P15941 1039-1158)
T1 construct: Bought protein, captured on an anti-His chip (so His-tagged)
T1 sequence: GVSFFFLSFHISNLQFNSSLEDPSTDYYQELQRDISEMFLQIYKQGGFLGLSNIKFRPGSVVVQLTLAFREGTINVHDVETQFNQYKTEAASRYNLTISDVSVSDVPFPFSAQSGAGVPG
Test: SPR; MUC1 antigen captured on anti-His CM5 chip, antibody as analyte
Below: a set of entries, each annotated with reported kon.

| binder | unit-abbrev | kon |
| --- | --- | --- |
| humanized IgG1 anti-MUC1-SEA mAb (HM5 LM4) (antibody, V domains shown, also called Humanized anti-MUC1 SEA IgG1; humanized IgG anti-MUC1-SEA mAb) VH: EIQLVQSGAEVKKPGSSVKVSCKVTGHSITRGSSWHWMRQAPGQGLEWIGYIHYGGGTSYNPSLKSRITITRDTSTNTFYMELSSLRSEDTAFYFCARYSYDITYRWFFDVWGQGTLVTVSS VL: DIQMTQSPSTLSASVGDRVTITCRASQNIGTSIHWYQQKPGKAPKLLIKYASESISGVPSRFSGSGSGTEFTLTISSLQPDDFATYYCQQNNNWPLTFGQGTKVEIKR | M⁻¹ s⁻¹ | 5.02e+06 |
| HM2 LM3 variant of humanized anti-MUC1 antibody SP66 (antibody, V domains shown, Humanized IgG expressed in CHO cells; only variable domains tied to the variant) VH: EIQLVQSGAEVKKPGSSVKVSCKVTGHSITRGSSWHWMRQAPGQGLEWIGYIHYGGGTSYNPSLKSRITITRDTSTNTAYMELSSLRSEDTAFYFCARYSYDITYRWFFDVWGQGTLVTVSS VL: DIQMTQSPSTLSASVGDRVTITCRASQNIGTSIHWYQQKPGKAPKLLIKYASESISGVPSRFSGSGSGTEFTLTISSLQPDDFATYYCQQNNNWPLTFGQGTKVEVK | M⁻¹ s⁻¹ | 3.14e+06 |
| HM2 LM2 variant of humanized anti-MUC1 antibody SP66 (antibody, V domains shown, Humanized IgG expressed in CHO cells; only variable domains tied to the variant) VH: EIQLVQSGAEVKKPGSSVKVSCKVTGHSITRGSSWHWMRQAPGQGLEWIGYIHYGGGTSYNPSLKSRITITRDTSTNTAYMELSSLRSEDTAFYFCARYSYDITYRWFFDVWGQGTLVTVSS VL: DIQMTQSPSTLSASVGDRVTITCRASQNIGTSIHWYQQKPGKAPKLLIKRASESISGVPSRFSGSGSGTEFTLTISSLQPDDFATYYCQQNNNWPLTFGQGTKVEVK | M⁻¹ s⁻¹ | 1.77e+06 |
| HM4 LM2 variant of humanized anti-MUC1 antibody SP66 (antibody, V domains shown, Humanized IgG expressed in CHO cells; only variable domains tied to the variant) VH: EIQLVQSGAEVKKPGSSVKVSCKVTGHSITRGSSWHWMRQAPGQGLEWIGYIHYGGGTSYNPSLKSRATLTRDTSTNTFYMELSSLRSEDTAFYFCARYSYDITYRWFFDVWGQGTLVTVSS VL: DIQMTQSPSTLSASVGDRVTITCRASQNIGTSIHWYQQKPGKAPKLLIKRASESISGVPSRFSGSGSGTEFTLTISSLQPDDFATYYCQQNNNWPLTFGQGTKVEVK | M⁻¹ s⁻¹ | 4.08e+06 |
| HM5 LM3 variant of humanized anti-MUC1 antibody SP66 (antibody, V domains shown, Humanized IgG expressed in CHO cells; only variable domains tied to the variant) VH: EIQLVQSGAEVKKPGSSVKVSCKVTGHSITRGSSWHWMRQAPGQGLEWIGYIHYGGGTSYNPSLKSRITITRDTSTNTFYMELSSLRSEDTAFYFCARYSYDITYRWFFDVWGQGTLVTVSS VL: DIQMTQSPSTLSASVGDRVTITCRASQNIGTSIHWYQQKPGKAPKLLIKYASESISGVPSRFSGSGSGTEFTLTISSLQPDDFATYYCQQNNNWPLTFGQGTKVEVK | M⁻¹ s⁻¹ | 3.97e+06 |
